# System: Clostridium perfringens
# Test Summary: Antibacterial activity against Clostridium perfringens ATCC 13124 after 24 hrs by ten-fold serial dilution method
# Format: functional
# Measurement Context: ATCC 13124, 24 h
Measurement Type: MIC

Previously resolved entries follow.
INSERT INTO assay_data (compound, val) VALUES
  ('Cn1c([N+](=O)[O-])cnc1[S+]([O-])CCC(=O)O (stereo not drawn)', '100 µg/mL'),
  ('Br.CCOC(=O)c1ccc(OCCCCSc2nccn2C)cc1', '> 100 µg/mL');

Prompt: Quick one: MIC for `Cn1c([N+](=O)[O-])cnc1SCCOc1ccc([N+](=O)[O-])cc1` ?
Completion: 100 µg/mL

----------
# Test system: Bacteroides fragilis
# Test Summary: Antibacterial activity against Bacteroides fragilis ATCC 23745 after 24 hrs by ten-fold serial dilution method
# Format: functional
# Measurement Context: ATCC 23745, 24 h
The entries below are paired with their reported MIC.
Numbers only; they are read as µg/mL.

INSERT INTO assay_data (compound, val) VALUES
  ('Cn1c([N+](=O)[O-])cnc1[S+]([O-])CCCCC(=O)O (stereo unspecified)', 100),
  ('CCOC(=O)c1ccc(OCCCCCCSc2ncc([N+](=O)[O-])n2C)c([N+](=O)[O-])c1', 10),
  ('Cn1c([N+](=O)[O-])cnc1SCCCCCCC(=O)O', 1),
  ('Cn1c([N+](=O)[O-])cnc1SCCOc1ccc(Br)cc1', 100);

Prompt: Quick one: MIC for `Cn1c([N+](=O)[O-])cnc1SCCCCCCCCCCCC(=O)O` ?
Completion: 100

Prompt: Quick one: MIC for `Cn1c([N+](=O)[O-])cnc1SCCCCOc1ccc(C(=O)O)cc1` ?
Completion: 10

Prompt: Quick one: MIC for `CCOC(=O)c1ccc(OCCCCCCCCCCSc2ncc([N+](=O)[O-])n2C)c([N+](=O)[O-])c1` ?
Completion: 10

Prompt: Quick one: MIC for `Cn1c([N+](=O)[O-])cnc1S(=O)(=O)CCCCC(=O)O` ?
Completion: 100

Prompt: Quick one: MIC for `Cn1c([N+](=O)[O-])cnc1SCCCCCC(=O)O` ?
Completion: 100

Prompt: Quick one: MIC for `Cn1c([N+](=O)[O-])cnc1SCCCOc1ccc(C(=O)O)cc1` ?
Completion: 1

Prompt: Quick one: MIC for Cn1c([N+](=O)[O-])cnc1[S+]([O-])CCC(=O)O (stereo unspecified) ?
Completion: 10

Prompt: Quick one: MIC for `Cn1c([N+](=O)[O-])cnc1SCCCCC(=O)O` ?
Completion: 1

Prompt: Quick one: MIC for Cn1c([N+](=O)[O-])cnc1[S+]([O-])CCOc1ccc(C(=O)O)cc1 (stereo unspecified) ?
Completion: 100

Prompt: Quick one: MIC for `Cn1c([N+](=O)[O-])cnc1SCCCCCCOc1ccc(C(=O)O)cc1` ?
Completion: 1

----------
# Tested on: Pentatrichomonas hominis
# Test Summary: Antibacterial activity against Pentatrichomonas hominis ATCC 30000 after 48 hrs by ten-fold serial dilution method
# Type: functional
# Measurement Context: ATCC 30000, 48 h
The entries below are paired with their reported MIC.
Numbers only; they are read as µg/mL.

INSERT INTO measurements (chemical_string, target_of_assay, val) VALUES
  ('Cn1c([N+](=O)[O-])cnc1SCCCCCCCCCCCCCCCC(=O)O', 'Pentatrichomonas hominis', 100);

Prompt: Quick one: MIC for `Cc1ncc([N+](=O)[O-])n1CCO` ?
Completion: 1

Prompt: Quick one: MIC for `Cn1c([N+](=O)[O-])cnc1SCCCCC(=O)O` ?
Completion: 1

Prompt: Quick one: MIC for `Cn1cc([N+](=O)[O-])nc1SCCCCCCC(=O)O` ?
Completion: 100

----------
# System: Clostridium perfringens
# Test Summary: Antibacterial activity against Clostridium perfringens ATCC 13124 after 24 hrs by ten-fold serial dilution method
# Type: functional
# Measurement Context: ATCC 13124, 24 h
The entries below are paired with their reported MIC.
Numbers only; they are read as µg/mL.

Prompt: Quick one: MIC for `Cn1c([N+](=O)[O-])cnc1SCCOc1ccc(C(=O)O)cc1` ?
Completion: 10

----------
The entries below are paired with their reported MIC.
# System: Pentatrichomonas hominis
# Test Summary: Antibacterial activity against Pentatrichomonas hominis ATCC 30000 after 48 hrs by ten-fold serial dilution method
# Format: functional
# Measurement Context: ATCC 30000, 48 h
Numbers only; they are read as µg/mL.

Previously resolved entries follow.
INSERT INTO results (compound, units, val) VALUES
  ('Cn1c([N+](=O)[O-])cnc1SCCOc1ccc(C(=O)O)cc1', 'µg/mL', 1),
  ('Cn1c([N+](=O)[O-])cnc1SCCCCOc1ccc(C(=O)O)cc1', 'µg/mL', 1),
  ('Cn1c([N+](=O)[O-])cnc1SCCCCCCCOc1ccccc1[N+](=O)[O-]', 'µg/mL', 100),
  ('Cn1c([N+](=O)[O-])cnc1SCCCCCCCCCCC(=O)O', 'µg/mL', 10),
  ('Cn1c([N+](=O)[O-])cnc1S(=O)(=O)CCC(=O)O', 'µg/mL', 100),
  ('Cn1c([N+](=O)[O-])cnc1SCCCCCCCCC(=O)O', 'µg/mL', 10);

In the following, a different compound is considered.
Prompt: Quick one: MIC for Cn1c([N+](=O)[O-])cnc1[S+]([O-])CCCCCCCCCCC(=O)O (stereo unspecified) ?
Completion: 100

----------
# Test system: Bacteroides fragilis
# Test Summary: Antibacterial activity against Bacteroides fragilis ATCC 23745 after 24 hrs by ten-fold serial dilution method
# Format: functional
# Measurement Context: ATCC 23745, 24 h
Measurement Type: MIC (µg/mL)
Numbers only; they are read as µg/mL.

Prompt: Quick one: MIC for `Cn1c([N+](=O)[O-])cnc1SCCOc1ccc(C(=O)O)cc1` ?
Completion: 10

Prompt: Quick one: MIC for `Cn1c([N+](=O)[O-])cnc1SCCCCCCCCCC(=O)O` ?
Completion: 10

Prompt: Quick one: MIC for `Cn1c([N+](=O)[O-])cnc1SCCCCCCCC(=O)O` ?
Completion: 10

Prompt: Quick one: MIC for `Cn1c([N+](=O)[O-])cnc1SCCCCCCCCC(=O)O` ?
Completion: 10

----------
The entries below are paired with their reported MIC.
# System: Pentatrichomonas hominis
# Test Summary: Antibacterial activity against Pentatrichomonas hominis ATCC 30000 after 48 hrs by ten-fold serial dilution method
# Format: functional
# Measurement Context: ATCC 30000, 48 h

Previously resolved entries follow.
INSERT INTO measurements (molecule, measurement_type, val) VALUES
  ('Cn1c([N+](=O)[O-])cnc1SCCCCCCCCCCCC(=O)O', 'MIC', '10 µg/mL'),
  ('Cn1c([N+](=O)[O-])cnc1SCCCCCC(=O)O', 'MIC', '1 µg/mL'),
  ('Cn1c([N+](=O)[O-])cnc1[S+]([O-])CCOc1ccc(C(=O)O)cc1 (stereo unspecified)', 'MIC', '100 µg/mL'),
  ('Cn1c([N+](=O)[O-])cnc1S(=O)(=O)CCCCC(=O)O', 'MIC', '100 µg/mL'),
  ('Cn1c([N+](=O)[O-])cnc1[S+]([O-])CCCCCCCOc1ccccc1[N+](=O)[O-] (stereo unspecified)', 'MIC', '100 µg/mL'),
  ('Br.Cn1ccnc1SCCCCOc1ccccc1', 'MIC', '> 100 µg/mL'),
  ('Cn1c([N+](=O)[O-])cnc1SCCCCCCCC(=O)O', 'MIC', '1 µg/mL'),
  ('CCOC(=O)c1ccc(OCCCCCCSc2ncc([N+](=O)[O-])n2C)c([N+](=O)[O-])c1', 'MIC', '10 µg/mL'),
  ('Cn1c([N+](=O)[O-])cnc1SCCOc1ccc([N+](=O)[O-])cc1', 'MIC', '1 µg/mL'),
  ('Cn1c([N+](=O)[O-])cnc1SCCOc1ccc(C#N)cc1', 'MIC', '1 µg/mL');

In the following, a different molecule is considered.
Prompt: Quick one: MIC for `Br.CCOC(=O)c1ccc(OCCCCSc2nccn2C)cc1` ?
Completion: 100 µg/mL

----------
# Test system: Clostridium perfringens
# Test Summary: Antibacterial activity against Clostridium perfringens ATCC 13124 after 24 hrs by ten-fold serial dilution method
# Type: functional
# Measurement Context: ATCC 13124, 24 h
Measurement Type: MIC

Previously resolved entries follow.
INSERT INTO measurements (molecule, val) VALUES
  ('Cn1c([N+](=O)[O-])cnc1SCCCCCCOc1ccc(C(=O)O)cc1', '10 µg/mL'),
  ('Cn1ccnc1SCCOc1ccc(C(=O)O)cc1', '> 100 µg/mL'),
  ('Cn1cc([N+](=O)[O-])nc1SCCCCCCC(=O)O', '> 100 µg/mL');

Prompt: State its MIC on Clostridium perfringens: `Cn1c([N+](=O)[O-])cnc1SCCCCCCCC(=O)O`
Completion: 0.1 µg/mL

Prompt: State its MIC on Clostridium perfringens: `Cn1c([N+](=O)[O-])cnc1S(=O)(=O)CCCCC(=O)O`
Completion: > 100 µg/mL

Prompt: State its MIC on Clostridium perfringens: `Cn1c([N+](=O)[O-])cnc1SCCCCCCCOc1ccccc1[N+](=O)[O-]`
Completion: > 100 µg/mL

Prompt: State its MIC on Clostridium perfringens: `Cn1c([N+](=O)[O-])cnc1SCCCCCCCCCCC(=O)O`
Completion: 10 µg/mL

Prompt: State its MIC on Clostridium perfringens: `Cn1c([N+](=O)[O-])cnc1S(=O)(=O)CCC(=O)O`
Completion: > 100 µg/mL

Prompt: State its MIC on Clostridium perfringens: Cn1c([N+](=O)[O-])cnc1[S+]([O-])CCOc1ccc(C(=O)O)cc1 (stereo not given)
Completion: 100 µg/mL

Prompt: State its MIC on Clostridium perfringens: Cn1c([N+](=O)[O-])cnc1[S+]([O-])CCCCCCCOc1ccccc1[N+](=O)[O-] (stereo not given)
Completion: > 100 µg/mL

Prompt: State its MIC on Clostridium perfringens: `Cc1ncc([N+](=O)[O-])n1CCO`
Completion: 10 µg/mL

Prompt: State its MIC on Clostridium perfringens: `COC(=O)CCCCCCCCCCSc1ncc([N+](=O)[O-])n1C`
Completion: > 100 µg/mL

Prompt: State its MIC on Clostridium perfringens: `Br.Cn1ccnc1SCCOc1ccc([N+](=O)[O-])cc1`
Completion: > 100 µg/mL

Prompt: State its MIC on Clostridium perfringens: `Br.Cn1ccnc1SCCOc1ccc(C#N)cc1`
Completion: > 100 µg/mL

Prompt: State its MIC on Clostridium perfringens: `CCOC(=O)c1ccc(OCCCCSc2nccn2C)cc1`
Completion: > 100 µg/mL

Prompt: State its MIC on Clostridium perfringens: `Cn1c([N+](=O)[O-])cnc1SCCCCCCCCCCCC(=O)O`
Completion: > 100 µg/mL

Prompt: State its MIC on Clostridium perfringens: `Cn1c([N+](=O)[O-])cnc1SCCOc1ccc(C(=O)[O-])cc1.[Na+]`
Completion: 10 µg/mL

Prompt: State its MIC on Clostridium perfringens: `Cn1ccnc1SCCCCC(=O)O`
Completion: > 100 µg/mL

Prompt: State its MIC on Clostridium perfringens: Cn1c([N+](=O)[O-])cnc1[S+]([O-])CCCCC(=O)O (stereo not given)
Completion: > 100 µg/mL

Prompt: State its MIC on Clostridium perfringens: Cn1c([N+](=O)[O-])cnc1[S+]([O-])CCOc1ccc(C#N)cc1 (stereo not given)
Completion: > 100 µg/mL
